# TARGET OF ASSAY: T1, C1 R1092W (ZF10-13) (mouse, UniProt A2A5K6 845-1337, R1092W)
# T1 sequence: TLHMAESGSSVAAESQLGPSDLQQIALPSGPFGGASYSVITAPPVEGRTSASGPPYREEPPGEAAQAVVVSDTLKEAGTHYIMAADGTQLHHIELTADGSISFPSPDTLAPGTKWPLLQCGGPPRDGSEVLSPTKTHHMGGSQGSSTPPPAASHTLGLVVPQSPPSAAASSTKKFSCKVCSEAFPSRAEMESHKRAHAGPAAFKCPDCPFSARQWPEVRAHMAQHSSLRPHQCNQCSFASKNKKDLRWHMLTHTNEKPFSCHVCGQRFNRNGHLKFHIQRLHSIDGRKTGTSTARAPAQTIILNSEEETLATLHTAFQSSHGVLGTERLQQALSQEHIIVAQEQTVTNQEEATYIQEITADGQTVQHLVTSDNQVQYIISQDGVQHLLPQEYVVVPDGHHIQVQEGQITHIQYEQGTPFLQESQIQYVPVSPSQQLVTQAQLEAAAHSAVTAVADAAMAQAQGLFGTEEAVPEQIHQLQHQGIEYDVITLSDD
# MEASUREMENT PROTOCOL: quantitative EMSA
PROPERTY LABEL: Kd (nM)
Write it as a number; the unit nM goes unstated.

Annotate the binder A2 (dsDNA) DNA 1: AGTCCGACTCAGGACCCCGACCAAGCTG DNA 2: CAGCTTGGTCGGGGTCCTGAGTCGGACT with its measured Kd. 1410

Value source: paper PMC4949324
